# assay.name: folding enthalpy; higher = less favourable; fluorescence melt of hairpins on a sequencing array, two-state fit
# assay.setup: sodium 0.088 M
Parameter: folding enthalpy. Scope: all listed entries.
parameter.measured: folding enthalpy (kcal/mol)

INSERT INTO assay_data (sequence_input, unit_symbol, reading) VALUES
  ('GCGTAATGACGC ((((....))))', 'kcal/mol', -23.2),
  ('GCACTCGAAAGAGATGC ((((((....))).)))', 'kcal/mol', -29.4),
  ('GACGACGAAAGTCACGTC ((((((....)))..)))', 'kcal/mol', -19.6),
  ('GGGTGACGAAAGTCCCC (((.(((....))))))', 'kcal/mol', -34.9),
  ('GCGACCGGAAACAGCCGC (((.(.(....).).)))', 'kcal/mol', -21.1),
  ('GTCTTTGAAAAAAGAC ((((((....))))))', 'kcal/mol', -31.1),
  ('CGCCCGGAAACGGCGGCG ((((((....)))..)))', 'kcal/mol', -24.4),
  ('GATCCTGAGTAGGATC ((((((....))))))', 'kcal/mol', -37.9),
  ('GTACTCGAAAGAGTCTAC ((((((....)))..)))', 'kcal/mol', -14.6),
  ('GCCGCTGCGAAAGCAGGC (((..(((....))))))', 'kcal/mol', -9.88),
  ('GCTGGCGGAAACGTCAGC ((((.((....)).))))', 'kcal/mol', -43.2),
  ('GTGTTTGGAAACAGACAC ((((.((....)).))))', 'kcal/mol', -36),
  ('CGAGGGAAACCTCG (((((....)))))', 'kcal/mol', -25.4),
  ('ACCTTGAAAAAGGT (((((....)))))', 'kcal/mol', -13.4),
  ('GATCGTGCACACGATC ((((((....))))))', 'kcal/mol', -41.3),
  ('GCAAGCGAAAGCTGATGC ((((((....)))..)))', 'kcal/mol', -16.3),
  ('GAACCCGAAAGGGTTTC ((((((....))).)))', 'kcal/mol', -12.1),
  ('GTAAACGAAAGTTTATAC ((((((....)))..)))', 'kcal/mol', -13.4),
  ('GAGGTGGAAACACCTC ((((((....))))))', 'kcal/mol', -33.3),
  ('GCTGTGTCGAAAGACAGC (((..(((....))))))', 'kcal/mol', -17.3),
  ('GCAAACGAAAGTTCATGC ((((((....)))..)))', 'kcal/mol', -11.2);
